Target of assay: KRAS-G12V antigen peptide (Homo sapiens, UniProt P01116, G12V)
Experiment summary: Emax and EC50 (functional avidity) of TCR MHC-II binding region mutants, Jurkat-NFAT-Luc with peptide-loaded SW620-DPB cells
Format: cell-based
Parameters: expressed in transfected cells; host or cells: SW620-DPB cells (SW620 expressing HLA-DPB1*03:01); the peptide is synthetic
Run parameters: G12V antigen peptide 10 μg/ml, 10-fold dilution, 5 concentrations
// reported Emax relative to WT for each item listed
Reply numerically in %, unit not repeated.

Inquiry: # return recorded Emax relative to WT for entry α52T-A (TCR) TCR alpha: AQSVAQPEDQVNVAEGNPLTVKCTYSVSGNPYLFWYVQYPNRGLQFLLKYIAGDNLVKGSYGFEAEFNKSQTSFHLKKPSALVSDSALYFCAVRDGRGGGNKLTFGTGTQLKVEL TCR beta: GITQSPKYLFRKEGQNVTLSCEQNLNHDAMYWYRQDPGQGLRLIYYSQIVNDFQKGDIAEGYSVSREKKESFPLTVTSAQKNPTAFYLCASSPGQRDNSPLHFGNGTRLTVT
Reply text: 131

Inquiry: # return recorded Emax relative to WT for entry α51I-E: B13.14.1 TCR Vα point mutant (protein) TCR alpha: AQSVAQPEDQVNVAEGNPLTVKCTYSVSGNPYLFWYVQYPNRGLQFLLKYETGDNLVKGSYGFEAEFNKSQTSFHLKKPSALVSDSALYFCAVRDGRGGGNKLTFGTGTQLKVEL TCR beta: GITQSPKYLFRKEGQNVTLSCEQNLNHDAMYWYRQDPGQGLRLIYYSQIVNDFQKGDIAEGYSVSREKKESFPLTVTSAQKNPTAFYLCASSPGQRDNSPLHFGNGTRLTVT
Reply text: 95
